# target: T1, ABH2 R172A (human, UniProt Q6NS38 1-261, R172A)
# T1 sequence: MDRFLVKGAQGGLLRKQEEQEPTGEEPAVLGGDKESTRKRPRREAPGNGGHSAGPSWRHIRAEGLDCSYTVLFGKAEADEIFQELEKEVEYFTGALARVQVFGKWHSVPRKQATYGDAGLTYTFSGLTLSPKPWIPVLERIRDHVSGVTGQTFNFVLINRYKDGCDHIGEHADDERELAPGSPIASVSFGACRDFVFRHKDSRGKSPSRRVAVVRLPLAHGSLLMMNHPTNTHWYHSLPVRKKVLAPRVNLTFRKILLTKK
# measurement-notes: EMSA; 0.5 mM αKG, 10 mM Mg2+, 2 mM ascorbate; 50 mM Tris-HCl pH 8.0, 50 mM KCl, 10 mM MgCl2, 0.5 mM αKG, 2 mM sodium ascorbate; 1.2 µM DNA, 0.4-12.8 µM protein; 10 min 37 °C then 5 min on ice; 10% native PAGE, 0.5x TBE, 4-8 °C; Hill fit
# cond: protein: recombinant; tags: N-terminal His6; label: 5'-FAM on strand 1; blunt
For each of the binders below, state its pKd.
One number for each entry, as −log10 of the molar value.

>>> assay_result("m1A dsDNA (dsDNA, N1-methyladenine (m1A) at position 10 of strand 1) DNA 1: AGTTCAATGATCTTCAT DNA 2: ATGAAGATCATTGAACT")
5.68

q: Return reported pKd; argument: m3C dsDNA (dsDNA, N3-methylcytosine (m3C) at position 12 of strand 1) DNA 1: AGTTCAATGATCTTCAT DNA 2: ATGAAGATCATTGAACT
a: 5.59
